- test.target: BaF3 cells transfected with wild type p210 BCR-Abl (Homo sapiens)
- Construct: fused on or other part: P11274 (Breakpoint cluster region protein)
- Sequence (P00519 whole entry, change not shown, the tested form may be a part): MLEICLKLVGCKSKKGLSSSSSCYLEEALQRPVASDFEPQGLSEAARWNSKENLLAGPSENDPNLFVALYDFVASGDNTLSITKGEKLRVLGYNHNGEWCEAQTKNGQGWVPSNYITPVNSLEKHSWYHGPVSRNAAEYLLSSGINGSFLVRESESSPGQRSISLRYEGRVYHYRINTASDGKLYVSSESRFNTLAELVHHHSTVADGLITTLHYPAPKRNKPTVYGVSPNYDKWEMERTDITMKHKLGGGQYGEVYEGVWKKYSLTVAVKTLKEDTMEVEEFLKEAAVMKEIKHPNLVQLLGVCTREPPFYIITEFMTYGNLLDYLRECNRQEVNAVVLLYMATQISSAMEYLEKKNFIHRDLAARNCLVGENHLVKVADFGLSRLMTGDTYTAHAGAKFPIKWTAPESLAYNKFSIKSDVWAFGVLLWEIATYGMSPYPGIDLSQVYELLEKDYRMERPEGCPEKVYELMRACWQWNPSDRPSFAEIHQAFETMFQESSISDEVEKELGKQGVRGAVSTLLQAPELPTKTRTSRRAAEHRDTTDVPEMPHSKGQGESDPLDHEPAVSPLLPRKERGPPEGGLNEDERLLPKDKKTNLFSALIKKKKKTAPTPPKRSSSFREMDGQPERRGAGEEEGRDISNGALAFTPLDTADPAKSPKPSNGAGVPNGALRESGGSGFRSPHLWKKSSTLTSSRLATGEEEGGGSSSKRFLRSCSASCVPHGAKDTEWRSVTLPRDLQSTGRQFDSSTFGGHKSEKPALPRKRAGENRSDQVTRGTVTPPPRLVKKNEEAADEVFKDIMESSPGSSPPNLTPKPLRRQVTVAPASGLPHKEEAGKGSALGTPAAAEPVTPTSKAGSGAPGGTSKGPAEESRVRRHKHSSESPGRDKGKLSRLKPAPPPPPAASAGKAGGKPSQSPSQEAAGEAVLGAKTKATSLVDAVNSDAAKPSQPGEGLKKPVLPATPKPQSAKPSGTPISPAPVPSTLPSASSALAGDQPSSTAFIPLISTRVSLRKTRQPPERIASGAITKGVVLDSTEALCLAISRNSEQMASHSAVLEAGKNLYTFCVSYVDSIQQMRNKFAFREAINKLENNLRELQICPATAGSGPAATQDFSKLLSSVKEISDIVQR
- method.notes: Ba/F3 p210 whole cell proliferation assay
- Format: cell-based
- setup.conditions: 72 hours, Cell Titer Blue; read-out: Whole Cell Antiproliferation IC50, Ba/F3 p210 whole cell proliferation assay
readout.kind: GI50

Solved entries (count: 3):
> print(dat)
                                   compound    result
1  Cn1cc(-c2cc(Oc3ccc(NC(=O)Nc4cnn(C(C)(C)C)c4)c(F)c3F)ccn2)cn1 [Example 8]  < 100 nM
2  CC(C)n1cnc(NC(=O)Nc2ccc(Oc3ccnc(-c4cnn(C)c4)c3)cc2F)c1 [Example 34]  < 100 nM
3  Cn1cc(-c2cc(Oc3ccc(NC(=O)Nc4cnn(C5CCCC5)c4)c(F)c3)ccn2)cn1 [Example 15]  < 100 nM

Give GI50; test system BaF3 cells transfected with wild type p210 BCR-Abl (Homo sapiens); compound Cn1cc(-c2cc(Oc3ccc(NC(=O)Nc4cnn(C(C)(C)C)c4)c(F)c3)ccn2)cn1 [Example 5]
< 100 nM
